Origin of measurements: patent US10889553B2

Target: Parkin ligase (Homo sapiens, UniProt O60260)
Experiment: Activity-Based Probe Assay using Ubiquitin vinyl sulfone probe (TR-FRET)
Type: biochemical
Conditions: heat activated Parkin, HA-Ub-VS probe, activation EC50; read-out: Probe Assay EC50 (μM) [Example 2]
QUANTITY: EC50 (µM)

MOLECULAR_STRING	EC50 / µM
Cc1ccccc1C(=O)Nc1nc(NC(=O)c2ccncc2)nn1-c1ccc(OC(F)(F)F)cc1	3

1: Cc1c(C(=O)Nc2nc(NC(=O)c3ccnc(F)c3C)n(-c3ccccc3)n2)ccnc1F
2: Cc1ccccc1C(=O)Nc1nc(NCc2ccccc2Cl)nn1-c1ccc(OC(F)(F)F)cc1
3: Cc1ccccc1C(=O)Nc1nc(NC(=O)c2ccccc2C)n(-c2ccccc2F)n1
Exercise: Exam item: list the entries in increasing order of EC50. Answer by writing out the labels in the requested order.
Key: 2, 1, 3
(2: 2 µM, 1: 5 µM, 3: 9 µM)

###

Test system: Mantle Cell Mino
Test: Cancer cell proliferation assay (acid phosphatase)
Assay type: cell-based
Settings: Homo sapiens, Table 6E
QUANTITY: IC50 (nM)
The answer is to be given in nM; state only the numeric part.

MOLECULAR_STRING	EXPERIMENTAL_RESULT
Cc1ccccc1C(=O)Nc1nc(NC(=O)c2ccccc2C)n(-c2ccccc2)n1	884

Field: next compound
Note to self: IC50 recorded for "Cc1ccccc1C(=O)Nc1nc(NC(=O)c2ccccc2C)n(-c2ccc(OC(F)(F)F)cc2)n1" was 345

###

Biological target: CYP2D6 (Homo sapiens, UniProt P10635)
Sequence (P10635 whole entry): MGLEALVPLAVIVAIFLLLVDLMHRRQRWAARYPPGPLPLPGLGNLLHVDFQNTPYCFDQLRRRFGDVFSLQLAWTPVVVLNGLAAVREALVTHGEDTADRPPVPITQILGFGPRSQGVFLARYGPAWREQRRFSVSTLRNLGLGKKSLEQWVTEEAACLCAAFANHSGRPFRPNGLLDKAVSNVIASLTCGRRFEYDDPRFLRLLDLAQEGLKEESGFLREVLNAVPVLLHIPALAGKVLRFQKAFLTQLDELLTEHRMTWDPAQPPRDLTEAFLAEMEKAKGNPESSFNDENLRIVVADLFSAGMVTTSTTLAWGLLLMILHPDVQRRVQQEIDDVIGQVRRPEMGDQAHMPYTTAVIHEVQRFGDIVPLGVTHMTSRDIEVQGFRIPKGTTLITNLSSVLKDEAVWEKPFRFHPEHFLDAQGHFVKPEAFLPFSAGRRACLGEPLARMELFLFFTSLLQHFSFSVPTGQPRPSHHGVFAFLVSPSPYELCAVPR
Experiment: CYP inhibition assay
Type: in vitro ADME
Details: read-out: % Inhibition at 30 μM CYP 2D6
QUANTITY: inhibition at 30 μM (%)
The answer is to be given in %; state only the numeric part.

Note to self: inhibition at 30 μM recorded for Cc1ccccc1C(=O)Nc1nc(NC(=O)c2ccccc2C)n(-c2ccc(OC(F)(F)F)cc2)n1 [Compound 42] was 6.87

###

Experiment: Microsomal stability assay, rat liver microsomes
Type: in vitro ADME
Details: pH 7.4; rat liver microsomes 1.0 mg/mL, 1 μM compound, NADPH; read-out: RLM t1/2
QUANTITY: half-life at 1 μM (h)

P: C#Cc1cccc(C(=O)Nc2nc(NC(=O)c3ccc(N=[N+]=[N-])cc3)n(-c3ccccc3)n2)c1
Q: Cc1ccccc1C(=O)Nc1nc(NC(=O)c2ccccc2C)n(-c2ccccc2F)n1
R: Cc1ccccc1C(=O)Nc1nc(NC(=O)c2cocn2)n(-c2ccccc2)n1
Exercise: With the 3 compounds above, produce a list ordered by ascending half-life at 1 μM. Answer by writing out the labels in the requested order.
Key: R, P, Q

###

Molecular target: Parkin ligase (Homo sapiens, UniProt O60260)
Assay: Activity-Based Probe Assay using Ubiquitin vinyl sulfone probe (TR-FRET)
Type: biochemical
Details: heat activated Parkin, HA-Ub-VS probe, activation EC50; read-out: Probe Assay EC50 (μM) [Example 2]
QUANTITY: EC50 (µM)

MOLECULAR_STRING	UNIT_TEXT	EXPERIMENTAL_RESULT
Cc1ccccc1C(=O)Nc1nc(NC(=O)c2ccccc2C)n(-c2cnn(C)c2)n1	µM	16
O=C(Nc1nc(NC(=O)c2c(F)c(F)c(F)c(F)c2F)n(-c2ccccc2)n1)c1ccccc1	µM	12
O=C(Nc1nc(Nc2cccc3ccccc23)n(-c2ccccc2)n1)c1ccccc1	µM	61
Cc1ccccc1C(=O)Nc1nc(NC(=O)c2cccc(N=[N+]=[N-])c2)n(-c2ccccc2)n1	µM	4
Cc1ccccc1C(=O)Nc1nc(NC(=O)c2cccnc2)nn1-c1ccccc1	µM	2
Cc1ccccc1C(=O)Nc1nc(N[C@H](C)c2ccccc2)nn1-c1ccccc1	µM	2

A: Cc1ccccc1C(=O)Nc1nc(NC(=O)c2ccncc2)nn1-c1cccc(F)c1
B: Cc1ccc(-n2nc(NC(=O)c3ccccc3C)nc2NC(=O)c2ccccc2C)cc1
Exercise: Which of the two gives a bigger number for EC50: A or B ? Which one? Tell me its label.
Key: B
(B: 4 µM, A: 2 µM)

P: COc1cccc(CNc2nc(NC(=O)c3ccccc3C)n(-c3ccc(OC(F)(F)F)cc3)n2)c1
Q: Cc1ccccc1C(=O)Nc1nc(-c2ncccc2C)nn1-c1cccc(F)c1
R: Cc1ccccc1C(=O)Nc1nc(NC(=O)c2ccccc2C)n(-c2ccc(F)cc2F)n1
S: Cc1ccccc1C(=O)Nc1nc(NC(=O)c2ccccc2C)n(-c2ccc(N3CCN(C)CC3)cc2)n1
Exercise: Exam item: list the entries in increasing order of EC50. Answer by writing out the labels in the requested order.
Key: Q, P, R, S
(Q: 1 µM, P: 2 µM, R: 6 µM, S: 24 µM)

###

Tested on: A549 (lung)
Experiment: Cancer cell proliferation assay (acid phosphatase)
Format: cell-based
Details: Homo sapiens, A549, 72 h, Table 6A; 72 hrs; read-out: A549 IC50
pIC50: −log10 of the molar value.
QUANTITY: pIC50

Field: example entries. Status: answers known.
MOLECULAR_STRING	TESTED_TARGET	pIC50
Cc1ccccc1C(=O)Nc1nc(-c2cccc(F)n2)nn1-c1cccc(F)c1	A549 (lung)	5.60
Cc1ccccc1C(=O)Nc1nc(NC(=O)c2ccccc2C)n(-c2ccc(N3CCC3)cc2)n1	A549 (lung)	5.62

I: Cc1cccc(-n2nc(NC(=O)c3ccccc3C)nc2NC(=O)c2ccccc2C)c1
II: Cc1ccccc1C(=O)Nc1nc(NC(=O)c2ccccc2C)n(-c2ccc(N3CCN(C(=O)OC(C)(C)C)CC3)cc2)n1
III: Cc1ccccc1C(=O)Nc1nc(NC(=O)c2ccccc2C)n(-c2ccc(C(F)(F)F)cc2)n1
IV: Cc1ccccc1C(=O)Nc1nc(NC(=O)c2ccccc2C)n(-c2cccc(F)c2)n1
Exercise: // ranking: key=pIC50, reverse=True Answer by writing out the labels in the requested order.
Key: III, IV, I, II
(III: 7.40, IV: 5.92, I: 5.68, II: 3.09)

###

Target: Parkin ligase (Homo sapiens, UniProt O60260)
Sequence (O60260 1-465): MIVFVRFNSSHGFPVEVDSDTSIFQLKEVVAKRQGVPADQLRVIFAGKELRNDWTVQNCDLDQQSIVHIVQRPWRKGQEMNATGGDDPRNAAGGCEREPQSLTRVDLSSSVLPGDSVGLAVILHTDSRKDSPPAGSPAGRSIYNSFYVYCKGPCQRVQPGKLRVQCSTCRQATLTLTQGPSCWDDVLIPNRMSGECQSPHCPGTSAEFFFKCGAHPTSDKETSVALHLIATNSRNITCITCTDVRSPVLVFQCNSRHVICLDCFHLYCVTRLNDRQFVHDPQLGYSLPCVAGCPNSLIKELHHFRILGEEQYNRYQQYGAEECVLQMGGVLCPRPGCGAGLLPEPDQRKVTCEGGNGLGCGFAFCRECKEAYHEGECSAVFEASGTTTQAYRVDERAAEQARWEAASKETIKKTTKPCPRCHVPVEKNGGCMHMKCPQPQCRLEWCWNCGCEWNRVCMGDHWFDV
Assay: Activity-Based Probe Assay using Ubiquitin vinyl sulfone probe (TR-FRET)
Type: biochemical
Conditions: heat activated Parkin, HA-Ub-VS probe, activation EC50; read-out: Probe Assay EC50 (μM) [Example 2]
QUANTITY: EC50 (µM)

Field: example entries. Status: answers known.
COMPOUND	UNIT_TEXT	EXPERIMENTAL_RESULT
Cc1ccccc1C(=O)Nc1nc(NC(=O)c2cnccn2)n(-c2ccccc2)n1 [Compound 17]	µM	10
Cc1ccccc1C(=O)Nc1nc(-c2cccc(F)n2)nn1-c1cccc(F)c1 [Compound 128]	µM	5

a: Cc1ccccc1C(=O)Nc1nc(NC(=O)c2ccc(N=[N+]=N)cc2)n(-c2ccc(OC(F)(F)F)cc2)n1 [Compound 74]
b: Cc1ccccc1C(=O)Nc1nc(NC(=O)c2ccccc2C)n(-c2ccc(N3CCC(O)C3)cc2)n1 (stereo not drawn) [Compound 58]
Exercise: Which of the two gives a bigger number for EC50: a or b ? Which one? Tell me its label.
Key: b

###

Assay: Oral bioavailability (PO) and pharmacokinetics assay
Format: in vivo, mice
Details: male, Sprague-Dawley, mouse, plasma, iv, 3 mg/kg, IV bolus (3 mg/kg), read-out: Vss
QUANTITY: Vd (L/kg)
The answer is to be given in L/kg; state only the numeric part.

Note to self: Vd recorded for "Cc1ccccc1C(=O)Nc1nc(NC(=O)c2ccccc2C)n(-c2ccc(OC(F)(F)F)cc2)n1" was 1.3

###

System: A549 (lung)
Experiment: Cancer cell proliferation assay (acid phosphatase)
Type: cell-based
Settings: Homo sapiens, A549, 72 h, Table 6A; 72 hrs; read-out: A549 IC50
pIC50: −log10 of the molar value.
QUANTITY: pIC50

COMPOUND	QUANTITY	EXPERIMENTAL_RESULT
Cc1cccc(-c2nc(NC(=O)c3ccccc3C)n(-c3ccc(OC(F)(F)F)cc3)n2)n1 [Compound 126]	pIC50	5.85
Cc1ccccc1C(=O)Nc1nc(-c2ncccc2C)nn1-c1cccc(F)c1 [Compound 146]	pIC50	6.52
Cc1ccccc1C(=O)Nc1nc(NC(=O)c2ccccc2C)n(-c2ccccc2Cl)n1 [Compound 26]	pIC50	5.60

a: Cc1ccccc1C(=O)Nc1nc(NC(=O)c2ccccc2C)n(-c2ccc(N3CCCCC3)cc2)n1 [Compound 44]
b: Cc1cccc(-c2nc(NC(=O)c3ccccc3C)n(-c3ccc(Cl)cc3)n2)n1 [Compound 127]
Exercise: Returns: the label, a or b , whose recorded pIC50 is the lower number. Which one? Tell me its label.
Key: a
